Experiment: Hemolytic activity
Format: cell-based, human
Conditions: human, at 263 µg/mL (192 µM); 50% DMSO/PBS; relative to Triton X-100; read-out: hemolysis of hRBCs
Peptide text beside a SMILES is read from it. * marks the point of attachment. X1 = O=C([C]12[CH]3[CH]4[CH]5[CH]1[Ru]45321678[CH]2[CH]1[CH]6[CH]7[CH]28)*
quantity.kind: hemolysis at 30 min, 192 µM (%)
Record the value in %, omitting the unit from your answer.

# return recorded hemolysis at 30 min, 192 µM for entry N=C(N)NCCC[C@H](NC(=O)[C@H](Cc1c[nH]c2ccccc12)NC(=O)[C@H](CCCNC(=N)N)NC(=O)[C@H](Cc1c[nH]c2ccccc12)NC(=O)[C]12[CH]3[CH]4[CH]5[CH]1[Ru]45321678[CH]2[CH]1[CH]6[CH]7[CH]28)C(=O)N[C@@H](Cc1c[nH]c2ccccc12)C(N)=O (stereo partly shown) [RcCO-W(RW)2] (X1-WRWRW-NH2) 64
